System: colo320 colorectal cancer tumor model
Conditions: Table 14 (Example 43); dose 45 mg/kg, once a week for four weeks; BALB/c mice
Where a SMILES comes first, the peptide text is derived from it. The star is where a group is joined. NEt(2-(20S-CPT-7-yl)ethyl) = CCN(CCc1c2c(nc3ccccc13)-c1cc3c(c(=O)n1C2)COC(=O)[C@]3(O)CC)*; Belotecan = CC[C@@]1(O)C(=O)OCc2c1cc1n(c2=O)Cc2c-1nc1ccccc1c2CCN(C(C)C)*; X2 = CCCCN(CCc1c2c(nc3ccccc13)-c1cc3c(c(=O)n1C2)COC(=O)[C@]3(O)CC)*; Propanoyl(3-maleimido) = O=C1C=CC(=O)N1CCC(=O)*; PEG6 = NCCOCCOCCOCCOCCOCCOCCC(=O)O
experimental readout: colo320 (colorectal cancer cell) growth rate (%)

molecule	target or test system	observed measurement
CC[C@@]1(O)C(=O)OCc2c1cc1n(c2=O)Cc2c-1nc1ccccc1c2CCN(C(=O)CNC(=O)[C@H](Cc1ccccc1)NC(=O)CNC(=O)CNC(=O)CCOCCOCCOCCOCCOCCOCCNC(=O)CCN1C(=O)C=CC1=O)C(C)C [MI-6PEG-GGFG-Belotecan] ({Propanoyl(3-maleimido)-PEG6}-GGFG-Belotecan)	colo320 colorectal cancer tumor model	525.03%
CC[C@@]1(O)C(=O)OCC2=C1C=C1c3nc4ccccc4c(CCN(C(=O)OCc4ccc(NC(=O)[C@H](CC(N)=O)NC(=O)[C@H](C)NC(=O)[C@H](C)NC(=O)CCOCCOCCOCCOCCOCCOCCNC(=O)CCN5C(=O)C=CC5=O)cc4)C(C)C)c3CN1C2 [MI-6PEG-AAN-PAB-Belotecan]	colo320 colorectal cancer tumor model	573.97%
CCN(CCc1c2c(nc3ccccc13)-c1cc3c(c(=O)n1C2)COC(=O)[C@]3(O)CC)C(=O)CNC(=O)[C@H](CC(N)=O)NC(=O)[C@H](C)NC(=O)CNC(=O)CCOCCOCCOCCOCCOCCOCCNC(=O)CCN1C(=O)C=CC1=O [MI-6PEG-GANG-D2] ({Propanoyl(3-maleimido)-PEG6}-GANG-{NEt(2-(20S-CPT-7-yl)ethyl)})	colo320 colorectal cancer tumor model	450.72%
CCN(CCc1c2c(nc3ccccc13)-c1cc3c(c(=O)n1C2)COC(=O)[C@]3(O)CC)C(=O)[C@H](CC(C)C)NC(=O)[C@H](CC(N)=O)NC(=O)[C@H](C)NC(=O)[C@H](C)NC(=O)CCOCCOCCOCCOCCOCCOCCNC(=O)CCN1C(=O)C=CC1=O [MI-6PEG-AANL-D2] ({Propanoyl(3-maleimido)-PEG6}-AANL-{NEt(2-(20S-CPT-7-yl)ethyl)})	colo320 colorectal cancer tumor model	760.87%
CCCCN(CCc1c2c(nc3ccccc13)-c1cc3c(c(=O)n1C2)COC(=O)[C@]3(O)CC)C(=O)[C@H](CC(C)C)NC(=O)[C@H](CC(N)=O)NC(=O)[C@H](C)NC(=O)[C@H](C)NC(=O)CCOCCOCCOCCOCCOCCOCCNC(=O)CCN1C(=O)C=CC1=O [MI-6PEG-AANL-D4] ({Propanoyl(3-maleimido)-PEG6}-AANL-X2)	colo320 colorectal cancer tumor model	832.33%

* * *

Test: Homogenate activation efficiency, heart tissue (Examples 28, 37)
Assay type: in vitro ADME
Conditions: pH 5.0, 37° C., 2 h; Table 10
Where a SMILES comes first, the peptide text is derived from it. The star is where a group is joined. NEt(2-(20S-CPT-7-yl)ethyl) = CCN(CCc1c2c(nc3ccccc13)-c1cc3c(c(=O)n1C2)COC(=O)[C@]3(O)CC)*; X8 = CC[C@@]1(O)C(=O)OCc2c1cc1n(c2=O)Cc2c-1nc1ccccc1c2CCN(C1CCCC1)*; X4 = CCCN(CCc1c2c(nc3ccccc13)-c1cc3c(c(=O)n1C2)COC(=O)[C@]3(O)CC)*; Propanoyl(3-maleimido) = O=C1C=CC(=O)N1CCC(=O)*; PEG6 = NCCOCCOCCOCCOCCOCCOCCC(=O)O
experimental readout: Percentage of release efficiency (%) Heart tissue

compound	unit of measure	observed measurement
CC[C@@]1(O)C(=O)OCc2c1cc1n(c2=O)Cc2c-1nc1ccccc1c2CCN(C(=O)[C@H](CC(C)C)NC(=O)[C@H](CC(N)=O)NC(=O)[C@H](C)NC(=O)[C@H](C)NC(=O)CCOCCOCCOCCOCCOCCOCCNC(=O)CCN1C(=O)C=CC1=O)C1CCCC1 [MI-6PEG-AANL-D8] ({Propanoyl(3-maleimido)-PEG6}-AANL-X8)	%	2.2
CCCN(CCc1c2c(nc3ccccc13)-c1cc3c(c(=O)n1C2)COC(=O)[C@]3(O)CC)C(=O)[C@H](CC(C)C)NC(=O)[C@H](CC(N)=O)NC(=O)[C@H](C)NC(=O)[C@H](C)NC(=O)CCOCCOCCOCCOCCOCCOCCNC(=O)CCN1C(=O)C=CC1=O [MI-6PEG-AANL-D3] ({Propanoyl(3-maleimido)-PEG6}-AANL-X4)	%	3.9
CCN(CCc1c2c(nc3ccccc13)-c1cc3c(c(=O)n1C2)COC(=O)[C@]3(O)CC)C(=O)[C@H](CC(C)C)NC(=O)[C@H](CC(N)=O)NC(=O)[C@H](C)NC(=O)[C@H](C)NC(=O)CCOCCOCCOCCOCCOCCOCCNC(=O)CCN1C(=O)C=CC1=O [MI-6PEG-AANL-D2] ({Propanoyl(3-maleimido)-PEG6}-AANL-{NEt(2-(20S-CPT-7-yl)ethyl)})	%	0.9

* * *

Reported colo320 (colorectal cancer cell) growth rate (%) values follow for various molecules
Test system: colo320 colorectal cancer tumor model
Conditions: 15 mg/kg once a week for four weeks; Table 3
experimental readout: colo320 (colorectal cancer cell) growth rate (%)

molecule	unit of measure	observed measurement
CCc1c2c(nc3ccc(OC(=O)N4CCC(N5CCCCC5)CC4)cc13)-c1cc3c(c(=O)n1C2)COC(=O)[C@]3(O)CC [Irinotecan, reference compound]	%	815.39
CC[C@@]1(O)C(=O)OCC2=C1C=C1c3nc4ccccc4c(CCN(C(=O)OCc4ccc(NC(=O)[C@H](CC(N)=O)NC(=O)[C@H](C)NC(=O)[C@H](C)NC(=O)CCOCCOCCOCCOCCOCCOCCNC(=O)CCN5C(=O)C=CC5=O)cc4)C(C)C)c3CN1C2	%	1105.40

* * *

Test system: sarcoma SJSA-1 tumor model
Details: 15 mg/kg once a week for three weeks; Table 7
Where a SMILES comes first, the peptide text is derived from it. The star is where a group is joined. NEt(2-(20S-CPT-7-yl)ethyl) = CCN(CCc1c2c(nc3ccccc13)-c1cc3c(c(=O)n1C2)COC(=O)[C@]3(O)CC)*; X4 = CCCN(CCc1c2c(nc3ccccc13)-c1cc3c(c(=O)n1C2)COC(=O)[C@]3(O)CC)*; X3 = CC[C@@]1(O)C(=O)OCc2c1cc1n(c2=O)Cc2c-1nc1ccccc1c2CCN(C1CC1)*; Propanoyl(3-maleimido) = O=C1C=CC(=O)N1CCC(=O)*; PEG6 = NCCOCCOCCOCCOCCOCCOCCC(=O)O

compound	Mouse weight (%)
CCN(CCc1c2c(nc3ccccc13)-c1cc3c(c(=O)n1C2)COC(=O)[C@]3(O)CC)C(=O)[C@H](CC(C)C)NC(=O)[C@H](CC(N)=O)NC(=O)[C@H](C)NC(=O)[C@H](C)NC(=O)CCOCCOCCOCCOCCOCCOCCNC(=O)CCN1C(=O)C=CC1=O [MI-6PEG-AANL-D2] ({Propanoyl(3-maleimido)-PEG6}-AANL-{NEt(2-(20S-CPT-7-yl)ethyl)})	+41%
CC[C@@]1(O)C(=O)OCc2c1cc1n(c2=O)Cc2c-1nc1ccccc1c2CCN(C(=O)[C@H](CC(C)C)NC(=O)[C@H](CC(N)=O)NC(=O)[C@H](C)NC(=O)[C@H](C)NC(=O)CCOCCOCCOCCOCCOCCOCCNC(=O)CCN1C(=O)C=CC1=O)C1CC1 [MI-6PEG-AANL-D6] ({Propanoyl(3-maleimido)-PEG6}-AANL-X3)	+19%
CCc1c2c(nc3ccc(OC(=O)N4CCC(N5CCCCC5)CC4)cc13)-c1cc3c(c(=O)n1C2)COC(=O)[C@]3(O)CC [Irinotecan, reference compound]	+17%
CCCN(CCc1c2c(nc3ccccc13)-c1cc3c(c(=O)n1C2)COC(=O)[C@]3(O)CC)C(=O)[C@H](CC(C)C)NC(=O)[C@H](CC(N)=O)NC(=O)[C@H](C)NC(=O)[C@H](C)NC(=O)CCOCCOCCOCCOCCOCCOCCNC(=O)CCN1C(=O)C=CC1=O [MI-6PEG-AANL-D3] ({Propanoyl(3-maleimido)-PEG6}-AANL-X4)	+21%

* * *

Reported Percentage of release efficiency (%) Non-small cell lung cancer tissue (A549) values follow for various compounds
Test: Tumor homogenate activation efficiency, non-small cell lung cancer tissue (Examples 28, 37)
Assay type: in vitro ADME
Settings: pH 5.0, 37° C., 2 h; Table 5
Where a SMILES comes first, the peptide text is derived from it. The star is where a group is joined. X1 = CC[C@@]1(O)C(=O)OCc2c1cc1n(c2=O)Cc2c-1nc1ccccc1c2CCN(C1CCC1)*; X3 = CC[C@@]1(O)C(=O)OCc2c1cc1n(c2=O)Cc2c-1nc1ccccc1c2CCN(C1CC1)*; Propanoyl(3-maleimido) = O=C1C=CC(=O)N1CCC(=O)*; PEG6 = NCCOCCOCCOCCOCCOCCOCCC(=O)O
experimental readout: Percentage of release efficiency (%) Non-small cell lung cancer tissue (A549)

compound	observed measurement
CC[C@@]1(O)C(=O)OCc2c1cc1n(c2=O)Cc2c-1nc1ccccc1c2CCN(C(=O)CNC(=O)[C@H](CC(N)=O)NC(=O)[C@H](C)NC(=O)[C@H](C)NC(=O)CCOCCOCCOCCOCCOCCOCCNC(=O)CCN1C(=O)C=CC1=O)C1CCC1 [MI-6PEG-AANG-D7] ({Propanoyl(3-maleimido)-PEG6}-AANG-X1)	77%
CC[C@@]1(O)C(=O)OCc2c1cc1n(c2=O)Cc2c-1nc1ccccc1c2CCN(C(=O)CNC(=O)[C@H](Cc1ccccc1)NC(=O)CNC(=O)CNC(=O)CCOCCOCCOCCOCCOCCOCCNC(=O)CCN1C(=O)C=CC1=O)C1CCC1 [MI-6PEG-GGFG-D7] ({Propanoyl(3-maleimido)-PEG6}-GGFG-X1)	75.2%
CC[C@@]1(O)C(=O)OCc2c1cc1n(c2=O)Cc2c-1nc1ccccc1c2CCN(C(=O)CNC(=O)[C@H](Cc1ccccc1)NC(=O)CNC(=O)CNC(=O)CCOCCOCCOCCOCCOCCOCCNC(=O)CCN1C(=O)C=CC1=O)C1CC1 [MI-6PEG-GGFG-D6] ({Propanoyl(3-maleimido)-PEG6}-GGFG-X3)	83.7%

Sourced from patent US20250235545A1
